Where do the numbers come from? From PubChem BioAssay AID1919014.

Test system: NCI-H1341 complex spheroids, percent test/control
Experiment: Anticancer human tumor NCI-H1341 cell line growth inhibition [AhR];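 further: spheroids exposed to agents for seven days before readout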
Conditions: second compound 0.316 µM; first compound 0.000949 µM; stronger effect = lower value
readout_name: viability, T/C (%)
Number in %, nothing else.

Observe how each entry below is paired with its result.
molecule	viability, T/C (%)
Nc1ncn(C2CC(O)C(CO)S2)c(=O)n1 (stereo unspecified) + Cc1ccccc1N=Nc1ccc(NC(=O)c2ccnn2C)c(C)c1	78.8
CCc1c2c(nc3ccc(O)cc13)-c1cc3c(c(=O)n1C2)COC(=O)[C@]3(O)CC + Cc1cncc(-c2nc(NCCc3c[nH]c4ccccc34)c3ncn(C(C)C)c3n2)c1	63.2

Next molecule, please.
Input: Find the recorded viability, T/C belonging to CCc1c2c(nc3ccc(O)cc13)-c1cc3c(c(=O)n1C2)COC(=O)[C@]3(O)CC + CC(CO)NC(=O)c1cc(-c2ccc(Cl)cc2)nn(-c2cnn(C)c2)c1=O and report it.
Output: 71.8
